# assaySystem: T1, soluble GPC3 core polypeptide (Homo sapiens (Human), UniProt P51654 25-563)
# T1 construct: Immobilized on the ELISA plate at 1 ug/mL; also called glypican 3 antigen; glypican 3
# T1 sequence (P51654 other isoform, or with tags, fused parts or gaps limits assumed): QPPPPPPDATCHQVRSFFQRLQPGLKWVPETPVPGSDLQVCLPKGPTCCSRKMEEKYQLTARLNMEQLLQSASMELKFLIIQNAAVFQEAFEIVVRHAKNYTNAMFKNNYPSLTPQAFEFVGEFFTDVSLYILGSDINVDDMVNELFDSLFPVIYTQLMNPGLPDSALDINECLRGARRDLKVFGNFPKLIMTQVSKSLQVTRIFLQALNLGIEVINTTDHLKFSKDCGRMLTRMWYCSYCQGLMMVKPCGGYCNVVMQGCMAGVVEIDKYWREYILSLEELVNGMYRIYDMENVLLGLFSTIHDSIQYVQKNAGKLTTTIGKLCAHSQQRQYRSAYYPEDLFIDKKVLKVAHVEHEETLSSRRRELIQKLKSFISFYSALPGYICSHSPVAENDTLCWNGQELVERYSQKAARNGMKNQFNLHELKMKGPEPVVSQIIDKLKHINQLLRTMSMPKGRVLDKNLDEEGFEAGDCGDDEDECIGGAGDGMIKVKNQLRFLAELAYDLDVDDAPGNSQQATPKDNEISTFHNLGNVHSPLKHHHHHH
# measurementDescription: competitive ELISA against biotinylated H0L0 on immobilized soluble GPC3 core (FIG. 14)
propertyName: binding result

humanized H0L0 antibody (antibody, V domains shown, the light chain constant region is not specified; also called humanized GC33 antibody) VH: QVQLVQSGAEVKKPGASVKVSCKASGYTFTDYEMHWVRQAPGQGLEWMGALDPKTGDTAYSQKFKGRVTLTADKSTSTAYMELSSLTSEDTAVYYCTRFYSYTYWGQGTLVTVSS VL: DVVMTQSPLSLPVTPGEPASISCRSSQSLVHSNRNTYLHWYLQKPGQSPQLLIYKVSNRFSGVPDRFSGSGSGTDFTLKISRVEAEDVGVYYCSQNTHVPPTFGQGTKLEIK : binds
